Numbers sourced from ChEMBL document CHEMBL1158011.

system: KB; experiment: Cytotoxicity against human KB cells after 72 hrs by neutral red assay; assay type: functional, cell-based
PROPERTY: IC50 (µg/mL)

[[record]]
compound = "COc1cc(O[C@@H]2O[C@H](CO)[C@@H](O)[C@H](O)[C@H]2O)c2c(=O)cc(-c3cc(O)c(OC)c(OC)c3)oc2c1 [LETHEDOSIDE C]"
readout_qualifier = "="
result_number = 43

[[record]]
compound = "COc1cc(O[C@@H]2O[C@H](CO[C@@H]3OC[C@@H](O)[C@H](O)[C@H]3O)[C@@H](O)[C@H](O)[C@H]2O)c2c(=O)cc(-c3ccc(OC)c(OC)c3)oc2c1 [LETHEDIOSIDE A]"
readout_qualifier = ">"
result_number = 100

[[record]]
compound = "COc1cc(O[C@@H]2O[C@H](CO[C@@H]3OC[C@@H](O)[C@H](O)[C@H]3O)[C@@H](O)[C@H](O)[C@H]2O)c2c(=O)cc(-c3cc(OC)c(OC)c(OC)c3)oc2c1 [LETHEDIOSIDE B]"
readout_qualifier = "="
result_number = 32

[[record]]
compound = "COc1cc(O)c2c(=O)cc(-c3ccc(O)c(OC)c3)oc2c1 [VELUTIN]"
readout_qualifier = "="
result_number = 1.5

[[record]]
compound = "COc1ccc(-c2cc(=O)c3c(O[C@@H]4O[C@H](CO[C@@H]5OC[C@@H](O)[C@H](O)[C@H]5O)[C@@H](O)[C@H](O)[C@H]4O)cc(OC)cc3o2)cc1"
readout_qualifier = ">"
result_number = 100

[[record]]
compound = "COc1cc(O[C@@H]2O[C@H](CO)[C@@H](O)[C@H](O)[C@H]2O)c2c(=O)cc(-c3cc(OC)c(OC)c(OC)c3)oc2c1 [LETHEDOSIDE B]"
readout_qualifier = "="
result_number = 37

[[record]]
compound = "COc1cc(O[C@@H]2O[C@H](CO)[C@@H](O)[C@H](O)[C@H]2O)c2c(=O)cc(-c3ccc(OC)c(OC)c3)oc2c1 [LETHEDOSIDE A]"
readout_qualifier = ">"
result_number = 100

